target: Baculoviral IAP repeat-containing protein 2 (Homo sapiens, UniProt Q13490)
Sequence (Q13490 whole entry): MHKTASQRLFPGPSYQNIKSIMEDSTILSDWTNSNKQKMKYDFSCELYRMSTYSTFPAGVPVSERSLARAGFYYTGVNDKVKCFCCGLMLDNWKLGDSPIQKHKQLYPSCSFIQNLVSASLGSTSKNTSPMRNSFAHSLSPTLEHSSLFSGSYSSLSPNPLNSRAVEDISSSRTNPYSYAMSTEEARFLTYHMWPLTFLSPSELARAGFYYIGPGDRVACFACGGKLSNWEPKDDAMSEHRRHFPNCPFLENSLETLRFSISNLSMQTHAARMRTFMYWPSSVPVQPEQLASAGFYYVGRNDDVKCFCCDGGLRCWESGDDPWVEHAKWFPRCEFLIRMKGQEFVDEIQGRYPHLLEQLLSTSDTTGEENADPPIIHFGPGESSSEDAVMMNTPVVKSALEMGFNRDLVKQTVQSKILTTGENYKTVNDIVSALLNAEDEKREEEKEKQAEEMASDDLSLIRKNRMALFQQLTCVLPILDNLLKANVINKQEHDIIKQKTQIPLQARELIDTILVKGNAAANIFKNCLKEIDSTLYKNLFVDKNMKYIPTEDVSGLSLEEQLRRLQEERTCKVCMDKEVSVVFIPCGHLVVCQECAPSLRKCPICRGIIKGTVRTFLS
method-description: Binding affinity to cIAP1 in human MDA-MB-231 cells assessed as induction of protein degradation after 1 hr by ELISA
pEC50: −log10 of the molar value.
recorded-metric: pEC50

1) CN[C@@H](C)C(=O)N[C@H](C(=O)N1CCC[C@H]1C(=O)N[C@H]1c2ccccc2C[C@H]1OCC#CC#CCO[C@@H]1Cc2ccccc2[C@@H]1NC(=O)[C@@H]1CCCN1C(=O)[C@@H](NC(=O)[C@H](C)NC)C(C)(C)C)C(C)(C)C: 9.40

a = CN[C@@H](C)C(=O)N[C@H](C(=O)N1CCC[C@H]1C(=O)N[C@H]1c2ccccc2CC[C@H]1OCC#CC#CCO[C@@H]1CCc2ccccc2[C@@H]1NC(=O)[C@@H]1CCCN1C(=O)[C@@H](NC(=O)[C@H](C)NC)C(C)(C)C)C(C)(C)C
b = CN[C@@H](C)C(=O)N[C@H](C(=O)N1CCC[C@H]1C(=O)N[C@H]1c2ccccc2C[C@H]1NC(=O)c1ccc(-c2ccc(C(=O)N[C@@H]3Cc4ccccc4[C@@H]3NC(=O)[C@@H]3CCCN3C(=O)[C@@H](NC(=O)[C@H](C)NC)C3CCCCC3)cc2)cc1)C1CCCCC1
Select the item with the higher value of pEC50 from the options a and b listed. Write the label of whichever entry you select.
a
(a: 9.70, b: 7.82)

----------
method-description: Volume of distribution at steady state in Han Wistar rat at 0.2 mg/kg, iv by LC-MS/MS analysis
Assay type: ADME, organism-based
Parameters: dose 0.2 mg/kg, route intravenous
recorded-conditions: in vivo, read-out: Vdss
recorded-metric: Vd (L/kg)

1. CN[C@@H](C)C(=O)N[C@H](C(=O)N1CCC[C@H]1C(=O)N[C@H]1c2ccccc2C[C@H]1OCC#CC#CCO[C@@H]1Cc2ccccc2[C@@H]1NC(=O)[C@@H]1CCCN1C(=O)[C@@H](NC(=O)[C@H](C)NC)C(C)C)C(C)C: 2.3

1 = CN[C@@H](C)C(=O)N[C@H](C(=O)N1CCC[C@H]1C(=O)N[C@@H]1CCN(CC#CC#CCN2CC[C@@H](NC(=O)[C@@H]3CCCN3C(=O)[C@@H](NC(=O)[C@H](C)NC)C3CCCCC3)c3ccccc32)c2ccccc21)C1CCCCC1
2 = CN[C@@H](C)C(=O)N[C@H](C(=O)N1CCC[C@H]1C(=O)N[C@H]1c2ccccc2CC[C@H]1OCC#CC#CCO[C@@H]1CCc2ccccc2[C@@H]1NC(=O)[C@@H]1CCCN1C(=O)[C@@H](NC(=O)[C@H](C)NC)C(C)(C)C)C(C)(C)C
Given 1 and 2 , report the one with the higher recorded Vd. // caller expects the label of the chosen entry
2
(2: 1.9 L/kg, 1: 1.2 L/kg)

----------
method-description: Elimination half life in Han Wistar rat at 0.5 mg/kg, iv by LC-MS/MS analysis
Assay type: ADME, organism-based
Design: dose 0.5 mg/kg, route intravenous
recorded-conditions: in vivo, read-out: beta t1/2 (converted)
recorded-metric: half-life (h)

P = CN[C@@H](C)C(=O)N[C@H](C(=O)N1CCC[C@H]1C(=O)N[C@H]1c2ccccc2C[C@H]1OCC#CC#CCO[C@@H]1Cc2ccccc2[C@@H]1NC(=O)[C@@H]1CCCN1C(=O)[C@@H](NC(=O)[C@H](C)NC)C1CCCCC1)C1CCCCC1
Q = CN[C@@H](C)C(=O)N[C@H](C(=O)N1CCC[C@H]1C(=O)N[C@H]1c2ccccc2C[C@H]1NC(=O)c1ccc(C(=O)N[C@@H]2Cc3ccccc3[C@@H]2NC(=O)[C@@H]2CCCN2C(=O)[C@@H](NC(=O)[C@H](C)NC)C2CCCCC2)cc1)C1CCCCC1
Parameter check: reported half-life is higher for which label, P or Q ? Refer to your chosen item by its label in the answer.
Q
(Q: 6.6 h, P: 0.5 h)
